Target: human LPA1 (Homo sapiens)
Construct: expressed in transfected cells; host or cells: CHO-K1
Experiment: In vitro LPA1 calcium flux antagonist assay - Bioduro protocol
Assay type: cell-based
Settings: CHO-K1 cells overexpressing human LPA1 and G15a; LPA challenge at EC80; calcium mobilization on FLIPR Tetra; read-out: IC50
READOUT: IC50 (nM)

I = CCOc1cc(OC)cc(-c2ccc(NC3(C(=O)O)CCOCC3)cc2COC2CCCC2)n1
II = CCOc1c(C)c(OC)cc(-c2ccc(NC3(C(=O)O)CCOCC3)cc2COC2CC2)c1F
[ask] Which of the two items, I and II , has the greater recorded IC50? API: response body contains the label of the selected item.
[reply] I
(I: 4850 nM, II: 5.44 nM)

I = COc1cc(-c2ccc(NC3(C(=O)O)CC(O)C3)cc2COC2Cc3ccccc3C2)cc(OC)c1C (stereo not shown) [Compound 130]
II = COc1cc(-c2ccc(C3(C(=O)O)CCOCC3)cc2COC2CCCC2)cc(OC)c1C
[ask] Which of the two items, I and II , has the greater recorded IC50? API: response body contains the label of the selected item.
[reply] II

A = CCOC(=O)N1CCC(Nc2cc(C)c(-c3cc(OC)cc(OC)c3)c(COC3CCCC3)c2)(C(=O)O)CC1
B = COc1cc(-c2ccc(NC3(C(=O)O)CCOCC3)cc2COC2COc3ccccc32)c(F)c(OC)c1C (single isomer, unassigned) [Compound 224]
C = COc1cc(-c2ccc(NC3(C(=O)O)CCOCC3)cc2COC2Cc3ccccc3C2)cc(OC)c1C(C)O (stereo not shown)
D = COc1cc(-c2ccc(NC3(C(=O)O)CCCOC3)cc2COC2CCCC2)c(C)c(OC)c1C (single isomer, unassigned) [Compound 201]
E = CCOc1c(C)ccc(-c2ccc(NC3(C(=O)O)CC3)cc2COC2CC2)c1C
[ask] List from greatest to least IC50. Output the labels ranked as instructed.
[reply] A, B, D, E, C
(A: 252 nM, B: 158 nM, D: 73.2 nM, E: 40.7 nM, C: 27.8 nM)

###

Biological target: human LPA1 (Homo sapiens)
Construct: expressed in transfected cells; host or cells: CHO-K1
Assay: In vitro LPA1 calcium flux antagonist assay - Bioduro protocol
Type: cell-based
Conditions: CHO-K1 cells overexpressing human LPA1 and G15a; LPA challenge at EC80; calcium mobilization on FLIPR Tetra; read-out: IC50
READOUT: IC50 (nM)

1 = CCOc1cccc(-c2ccc(NC3(C(=O)O)CCOCC3)cc2CCC2CC2)c1C(F)F
2 = COc1cc(-c2ccc(NC3(C(=O)O)CCCC3)cc2COC2Cc3ccccc3C2)cc(OC)c1C
3 = CCOc1cc(OC)cc(-c2ccc(NC3(C(=O)O)CCOCC3)cc2CCC2CC2)c1F
4 = COc1cc(-c2ccc(NC3(C(=O)O)CCNCC3)cc2COC2Cc3ccccc3C2)cc(OC)c1C
[ask] Hey, quick one: sort these by IC50, largest value first please. Output the labels ranked as instructed.
[reply] 4, 2, 1, 3
(4: 885 nM, 2: 188 nM, 1: 2.4 nM, 3: 0.763 nM)

###

# IC50 per record follows
Target: human LPA1 (Homo sapiens, UniProt Q92633)
Construct: expressed in transfected cells; host or cells: CHO-K1
Sequence (Q92633 whole entry): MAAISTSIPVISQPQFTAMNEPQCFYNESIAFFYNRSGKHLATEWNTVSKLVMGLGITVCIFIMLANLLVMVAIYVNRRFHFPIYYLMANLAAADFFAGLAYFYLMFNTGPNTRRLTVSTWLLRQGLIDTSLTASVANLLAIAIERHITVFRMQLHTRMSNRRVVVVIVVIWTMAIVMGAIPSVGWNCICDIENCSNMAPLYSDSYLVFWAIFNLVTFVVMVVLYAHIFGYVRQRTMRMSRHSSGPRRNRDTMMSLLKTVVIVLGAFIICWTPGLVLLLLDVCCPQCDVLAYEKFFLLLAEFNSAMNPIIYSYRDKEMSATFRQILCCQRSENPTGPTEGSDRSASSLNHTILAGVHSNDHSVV
Assay: In vitro LPA1 calcium flux antagonist assay - Bioduro protocol
Format: cell-based
Settings: Table B3; CHO-K1 cells overexpressing human LPA1 and G15a, LPA challenge at EC80; read-out: Activity (IC50 class)

// returns IC50 for COc1cc(-c2ccc(NC3(C(=O)O)CC(OC)C3)cc2COC2Cc3ccccc3C2)cc(OC)c1C (single isomer, unassigned) [Compound 125] with human LPA1 (Homo sapiens, UniProt Q92633); value = 100 to 1000 nM

// returns IC50 for COc1cc(-c2c(C)cc(OC3(C(=O)O)CCOCC3)cc2COC2CCCC2)cc(OC)c1C with human LPA1 (Homo sapiens, UniProt Q92633); value = 100 to 1000 nM

Data origin, for the record: patent US11884627B2
